- Tested on: Vero E6 infected with SARS-CoV-2
- ASSAY_REMARKS: inhibition of SARS-CoV-2 cytopathic effect; higher = more antiviral protection, active = above 15
- CONDITION_CONTEXT: 8.33 nM; 48 h
ASSAY_ENDPOINT: inhibition of SARS-CoV-2 cytopathic effect (%)
Just the number please, in %, no unit attached.

Some entries whose results are on file:
INSERT INTO results (compound, u, observed_value) VALUES
  ('Cc1ccccc1C(=O)c1ccc(Nc2ccc(Br)cc2N)cc1Cl', '%', 1.13),
  ('CC(=O)SCCC(=O)N1[C@H](C)CCC[C@@H]1C(=O)O', '%', -1.6),
  ('Cc1c(C(=O)NC2CCCCC2)sc2nc3ccc(N)cc3n12', '%', -2.6),
  ('CC(C)(C)C(=O)CN1C(=O)[C@H](NC(=O)Nc2cccc(C(=O)O)c2)CN(C2CCCCC2)c2ccccc21 [nastorazepide]', '%', -0.99);

In the following, a different compound is considered.
Using known records, supply inhibition of SARS-CoV-2 cytopathic effect for CC[C@@H](Nc1c(Nc2cccc(C(=O)N(C)C)c2O)c(=O)c1=O)c1ccc(C)o1
1.26

====

- Tested on: Vero E6 infected with SARS-CoV-2
- ASSAY_REMARKS: inhibition of SARS-CoV-2 cytopathic effect; higher = more antiviral protection, active = above 15
- CONDITION_CONTEXT: 833.33 nM; 48 h
ASSAY_ENDPOINT: inhibition of SARS-CoV-2 cytopathic effect (%)
Report only the number, with the unit % understood.

Sample records with inhibition of SARS-CoV-2 cytopathic effect:
INSERT INTO assay_data (molecule, u, observed_value) VALUES
  ('C[C@H](CCC(=O)O)[C@H]1CC[C@H]2[C@@H]3[C@H](O)C[C@@H]4C[C@H](O)CC[C@]4(C)[C@H]3C[C@H](O)[C@]12C [cholic-acid]', '%', -0.84),
  ('CN1CCC(c2c[nH]c3ccc(O)cc23)CC1', '%', 3.92),
  ('COc1ncc(-c2ccc3c(Nc4cc(Oc5cc(F)cc(F)c5)cc(C(=O)O)c4)c(S(=O)(=O)NC4CC4)cnc3c2)c(OC)n1', '%', 2.71);

Please respond with reported inhibition of SARS-CoV-2 cytopathic effect (system Vero E6 infected with SARS-CoV-2) for O=C(NC(=O)c1c(F)cccc1Cl)NC1c2ccccc2-c2ccccc21 .
2.13

Report value only: inhibition of SARS-CoV-2 cytopathic effect, Vero E6 infected with SARS-CoV-2, Fc1ccccc1CNCc1ccc(-c2ccnc3[nH]ccc23)cc1
-1.5

Name the value of inhibition of SARS-CoV-2 cytopathic effect reported for CC(C)/N=c1\cc2n(-c3ccc(Cl)cc3)c3ccccc3nc-2cc1Nc1ccc(Cl)cc1 [clofazimine] when tested on Vero E6 infected with SARS-CoV-2.
6.27

State the measured inhibition of SARS-CoV-2 cytopathic effect (Vero E6 infected with SARS-CoV-2) of O=[N+]([O-])c1cn2c(n1)OC[C@@H](OCc1ccc(-c3ccc(OC(F)(F)F)cc3)nc1)C2
4.38

====

The entries below come with measured inhibition of SARS-CoV-2 cytopathic effect values attached.
- Tested on: Vero E6 infected with SARS-CoV-2
- ASSAY_REMARKS: inhibition of SARS-CoV-2 cytopathic effect; higher = more antiviral protection, active = above 15
- CONDITION_CONTEXT: 100 nM; 48 h
Structures can show the parent of a compound that is named as a salt.
Output spec: scalar in %, unitless text.

Solved cases below.
INSERT INTO results (molecule, u, observed_value) VALUES
  ('Clc1ccc(-c2nc3sccn3c2/C=N/OCc2ccc(Cl)c(Cl)c2)cc1', '%', -1.16),
  ('CCOC(=O)[C@@H](N)Cc1ccc(-c2cc(O[C@H](c3ccc(Cl)cc3-n3ccc(C)n3)C(F)(F)F)nc(N)n2)cc1', '%', -1.08),
  ('CC(=O)OCC1=C(C(=O)O)N2C(=O)[C@@H](NC(=O)CCCC(N)C(=O)O)C2SC1 (stereo partly drawn)', '%', -2.05),
  ('CO/N=C(\C(=O)N[C@@H]1C(=O)N2C(C(=O)O)=C(Cn3ccc(=N)n3CCO)CS[C@H]12)c1csc(N)n1 [Cefoselis sulfate]', '%', -1.18),
  ('C/C=C1\[C@H]2C=C(C)C[C@]1(N)c1ccc(=O)[nH]c1C2 [(-)-Huperzine A]', '%', 0.96),
  ('C=CC(=O)N1CCN(C(=O)CNc2cc(I)c(Cl)cc2O)CC1 [K-Ras(G12C)-inhibitor-12]', '%', 7.62);

Give the value of inhibition of SARS-CoV-2 cytopathic effect reported for the following: COc1ccc(CCN)cc1OC
12.7

Provide measured inhibition of SARS-CoV-2 cytopathic effect value, entry: Cc1cc(C)c(NC(=O)C2CC3CCC2C3)c(C)c1 (stereo not drawn)
-3.03
